System: Myzus persicae (Green peach aphid)
Assay: Myzus persicae feeding/contact activity on sunflower leaf discs
Format: in vivo
Conditions: foliar, 144 h, application rate 200 ppm, aphid population of mixed ages, assessed 6 days after infestation, read-out: mortality
Description: Myzus persicae (Green peach aphid): Feeding/Contact activity Sunflower leaf discs were placed onto agar in a 24-well microtiter plate and sprayed with aqueous test solutions prepared from 10′000 ppm DMSO stock solutions. After drying, the leaf discs were infested with an aphid population of mixed ages. The samples were assessed for mortality 6 days after infestation.
measure: mortality at 200 ppm

**Query** Please look up its mortality at 200 ppm: CCN(C(=O)c1cc(-c2cnn(-c3c(OC(F)F)c(C(F)(C(F)(F)F)C(F)(F)F)nn3C)c2)ccc1Cl)C1(C#N)CC1
**Result** ≥ 80%

**Query** Same read-out for COCCCN(C(=O)c1cc(-c2cnn(-c3c(OC(F)F)c(C(F)(C(F)(F)F)C(F)(F)F)nn3C)c2)ccc1Cl)C1(C#N)CC1 ?
**Result** ≥ 80%

Now consider a different molecule.
**Query** Data request, read-out mortality at 200 ppm, for CCOCCN(C(=O)c1cc(-c2cnn(-c3c(OC(F)F)c(C(F)(C(F)(F)F)C(F)(F)F)nn3C)c2)ccc1Cl)C1(C#N)CC1
**Result** ≥ 80%
